# experimental_target: HDAC6 enzyme (Homo sapiens, UniProt Q9UBN7)
# Construct: transducing full length HDAC6 gene into Sf-9 insect cells; GST; purchased SignalChem; host or cells: Sf-9 insect cells
# Sequence (Q9UBN7 whole entry): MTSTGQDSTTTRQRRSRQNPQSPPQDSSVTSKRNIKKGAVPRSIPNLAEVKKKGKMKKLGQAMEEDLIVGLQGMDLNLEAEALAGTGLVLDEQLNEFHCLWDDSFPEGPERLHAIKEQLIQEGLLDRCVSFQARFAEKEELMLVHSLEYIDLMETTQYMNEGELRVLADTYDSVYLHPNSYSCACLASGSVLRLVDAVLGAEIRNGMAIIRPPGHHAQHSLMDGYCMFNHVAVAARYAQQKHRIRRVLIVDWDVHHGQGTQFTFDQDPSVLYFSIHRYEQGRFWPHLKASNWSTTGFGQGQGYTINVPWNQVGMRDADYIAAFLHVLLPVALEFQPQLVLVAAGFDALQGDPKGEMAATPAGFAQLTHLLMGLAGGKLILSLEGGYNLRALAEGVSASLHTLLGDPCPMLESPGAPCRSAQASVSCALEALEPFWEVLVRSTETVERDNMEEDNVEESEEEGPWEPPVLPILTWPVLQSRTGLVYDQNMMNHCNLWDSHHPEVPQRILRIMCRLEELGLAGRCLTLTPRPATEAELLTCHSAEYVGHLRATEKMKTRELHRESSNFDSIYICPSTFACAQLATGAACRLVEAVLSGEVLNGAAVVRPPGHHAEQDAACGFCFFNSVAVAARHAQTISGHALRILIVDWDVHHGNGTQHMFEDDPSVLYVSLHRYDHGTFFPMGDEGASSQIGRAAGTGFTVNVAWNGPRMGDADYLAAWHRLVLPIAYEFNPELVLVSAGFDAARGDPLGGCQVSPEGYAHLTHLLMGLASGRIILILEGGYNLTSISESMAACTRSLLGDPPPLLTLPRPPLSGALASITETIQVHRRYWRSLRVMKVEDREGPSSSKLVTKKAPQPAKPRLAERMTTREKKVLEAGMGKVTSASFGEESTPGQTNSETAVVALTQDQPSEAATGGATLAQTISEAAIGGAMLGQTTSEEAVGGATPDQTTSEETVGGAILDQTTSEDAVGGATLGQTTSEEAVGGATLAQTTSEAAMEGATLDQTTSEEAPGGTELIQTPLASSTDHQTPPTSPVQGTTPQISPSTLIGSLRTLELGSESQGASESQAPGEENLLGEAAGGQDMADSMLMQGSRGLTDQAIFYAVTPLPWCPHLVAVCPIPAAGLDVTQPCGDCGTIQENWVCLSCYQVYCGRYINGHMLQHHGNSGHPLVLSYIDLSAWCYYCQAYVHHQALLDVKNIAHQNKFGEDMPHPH
# assay_protocol: HDAC6 enzyme inhibitory activity (HDAC-Glo I/II Assay kit)
# Type: biochemical
# experimental_parameters: 10 μM; wells without enzyme = 100% inhibition; read-out: HDAC6 inhibitory rate (%) (10 μM)
metric_name: inhibition at 10 µM (%)

{"molecule": "CC1(C(=O)N[C@@H]2CCCC[C@H]2N2Cc3ccc(-c4nnc(C(F)F)o4)cc3C2=O)COC1", "metric_name": "inhibition at 10 µM", "experimental_result": 100}
{"molecule": "O=C(N[C@@H]1COCC[C@H]1N1Cc2c(F)cc(-c3nnc(C(F)F)o3)cc2C1=O)c1ccccc1Cl", "metric_name": "inhibition at 10 µM", "experimental_result": 100}
{"molecule": "O=C1c2cc(-c3nnc(C(F)F)o3)cc(F)c2CN1Cc1ccccn1", "metric_name": "inhibition at 10 µM", "experimental_result": 95}
{"molecule": "O=C1c2cc(-c3nnc(C(F)F)o3)ccc2CN1c1ccccc1-c1ccc(C2CC2)cc1", "metric_name": "inhibition at 10 µM", "experimental_result": 95}
{"molecule": "O=C1c2cc(-c3nnc(C(F)F)o3)ccc2CN1N1CCC(F)(F)CC1c1ccc(F)cc1 (centres unmarked)", "metric_name": "inhibition at 10 µM", "experimental_result": 100}
{"molecule": "O=C(O[C@@H]1CCCC[C@H]1N1Cc2ccc(-c3nnc(C(F)F)o3)cc2C1=O)N1CCCC1", "metric_name": "inhibition at 10 µM", "experimental_result": 100}
{"molecule": "O=C1c2cc(-c3nnc(C(F)F)o3)ccc2CN1[C@@H]1CCCC[C@H]1Oc1cncc(F)c1 (racemic)", "metric_name": "inhibition at 10 µM", "experimental_result": 100}
{"molecule": "O=C1c2cc(-c3nnc(C(F)F)o3)cc(F)c2CN1C[C@@H]1CC(F)(F)CN1S(=O)(=O)CC(F)(F)F", "metric_name": "inhibition at 10 µM", "experimental_result": 100}
